system: Lindernia pyxidaria; assay: Test Example 12: herbicidal effect test by treatment during growing period in paddy field; format: in vivo; conditions: 120 g/10a; treatment seven days after sowing in flooded paddy pot; assessed 14 days after treatment
Weed suppression rate (%) Lindemia pyxidaria strictly less than 80% = Met. Otherwise Not met.

Previously resolved entries follow.
[[record]]
molecule = "CC(C)N(C(=O)n1cnn(S(C)(=O)=O)c1=O)c1ccc(F)c(F)c1F [Compound 11-15]"
cat = "Met"

[[record]]
molecule = "CC(C)N(C(=O)n1cnn(S(=O)(=O)c2ccc(F)cc2)c1=O)c1ccccc1 [Compound 11-464]"
cat = "Met"

[[record]]
molecule = "CC(C)N(C(=O)n1cnn(S(C)(=O)=O)c1=O)c1ccc(Cl)cn1 [Compound 11-38]"
cat = "Not met"


Data request: Does the reported Weed suppression rate (%) Lindemia pyxidaria of CC(C)N(C(=O)n1cnn(S(=O)(=O)C(C)C)c1=O)c1ccccc1 [Compound 11-48] stay below 80%?
Data returned: Met

Data request: Does the reported Weed suppression rate (%) Lindemia pyxidaria of CC(C)N(C(=O)n1cnn(S(=O)(=O)C(C)C)c1=O)c1cccc(F)c1F [Compound 11-58] stay below 80%?
Data returned: Not met

Data request: Does the reported Weed suppression rate (%) Lindemia pyxidaria of Cc1ccc(S(=O)(=O)n2ncn(C(=O)N(c3c(F)c(F)cc(F)c3F)C(C)C)c2=O)cc1 [Compound 11-642] stay below 80%?
Data returned: Met

Data request: Does the reported Weed suppression rate (%) Lindemia pyxidaria of CC(C)N(Cc1ccc(F)cc1F)C(=O)n1cnn(S(=O)(=O)c2cccs2)c1=O [Compound 11-1046] stay below 80%?
Data returned: Not met

Data request: Does the reported Weed suppression rate (%) Lindemia pyxidaria of CC(C)N(C(=O)n1cnn(S(=O)(=O)c2cccc(Cl)c2)c1=O)c1ccc(F)cc1F [Compound 11-550] stay below 80%?
Data returned: Not met

Data request: Does the reported Weed suppression rate (%) Lindemia pyxidaria of CC(C)N(C(=O)n1cnn(S(=O)(=O)C2CC2)c1=O)c1ccc(Cl)cn1 [Compound 11-233] stay below 80%?
Data returned: Not met

----------
A collection of compounds and their measured Weed suppression rate (%) Echinochloa crus-galli
Test system: Echinochloa crus-galli
Assay: Test Example 11: herbicidal effect test by soil treatment in paddy field
Assay type: in vivo
Details: 120 g/10a active ingredient, 14 days after treatment
Procedure: A Wagner pot having an area of 1/10000 are was filled with paddy field soil and after adding water, a chemical fertilizer (N:P:K=17:17:17) was mixed, followed by puddling. […] This test was performed with two replications per one formulation concentration plot, and 14 days after the formulation treatments, the weed suppression rate (%) was determined according to the following equation (Math. 2). […]
Just the number in %, nothing appended.

See these solved cases before continuing.
[[record]]
compound = "CC(C)N(C(=O)n1cnn(S(=O)(=O)C(C)C)c1=O)c1ccc(F)c(F)c1F [Compound 11-62]"
measured_number = 100

[[record]]
compound = "CC(C)N(C(=O)n1cnn(S(=O)(=O)C2CCCCC2)c1=O)c1ccc(C(F)(F)F)cc1Cl [Compound 11-314]"
measured_number = 90

[[record]]
compound = "CC(C)N(C(=O)n1cnn(S(C)(=O)=O)c1=O)c1cccc(F)c1F [Compound 11-11]"
measured_number = 100

[[record]]
compound = "CC(C)S(=O)(=O)n1ncn(C(=O)N(C)c2ccc(F)cc2F)c1=O [Compound 11-1127]"
measured_number = 100

[[record]]
compound = "Cc1ccc(S(=O)(=O)n2ncn(C(=O)N(c3c(F)c(F)cc(F)c3F)C(C)C)c2=O)cc1 [Compound 11-642]"
measured_number = 100


CC(C)N(C(=O)n1cnn(S(=O)(=O)c2ccc(F)cc2)c1=O)c1c(F)c(F)cc(F)c1F [Compound 11-480] yielded Weed suppression rate (%) Echinochloa crus-galli of 100

CC(C)N(C(=O)n1cnn(S(=O)(=O)c2c(F)cccc2F)c1=O)c1ccc(F)cc1Cl [Compound 11-780] yielded Weed suppression rate (%) Echinochloa crus-galli of 60

Source: patent US11076595B2
